Listing: % Phosphatase Activity (compared to DMSO) PRL-3 of selected compounds
# Study Target: recombinant PRL-3 (Homo sapiens)
# Construct: 6xHis (N, cleaved yes); made in house; host or cells: E. coli One Shot BL21 Star
# Sequence (O75365 whole entry): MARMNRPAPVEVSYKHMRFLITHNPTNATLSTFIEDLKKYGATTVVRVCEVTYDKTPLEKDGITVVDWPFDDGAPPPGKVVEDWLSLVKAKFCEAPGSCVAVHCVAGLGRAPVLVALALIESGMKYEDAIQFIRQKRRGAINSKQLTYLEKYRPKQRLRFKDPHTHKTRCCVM
# Experiment: In vitro phosphatase assay (DiFMUP hydrolysis), PRL-3; also: test concentration or dose not given here
# Type: biochemical
# Test Settings: FDA-approved drug screen; compared to DMSO
Counter-ions that a name gives are not always drawn.
Could you kindly put the unit after your number?

Solved cases below.
[
  {
    "Compound": "CCCCC(=O)O[C@H]1CC[C@H]2[C@@H]3CCc4cc(O)ccc4[C@H]3CC[C@]12C [Estradiol valerate]",
    "Reported": "85%"
  },
  {
    "Compound": "CN1CCN(c2ccc(C(=O)Nc3n[nH]c4ccc(Cc5cc(F)cc(F)c5)cc34)c(NC3CCOCC3)c2)CC1 [Entrectinib (RXDX-101)]",
    "Reported": "180%"
  },
  {
    "Compound": "Cc1ncc([N+](=O)[O-])n1CC(C)O (centres unmarked)",
    "Reported": "81%"
  },
  {
    "Compound": "COc1cc2c(cc1OC)[C@@]13CCN4CC5=CCO[C@H]6CC(=O)N2[C@H]1[C@H]6[C@H]5C[C@H]43",
    "Reported": "83%"
  },
  {
    "Compound": "CCN(CC)CC(=O)Nc1c(C)cccc1C [Lidocaine hydrochloride]",
    "Reported": "84%"
  }
]

// lookup % Phosphatase Activity (compared to DMSO) PRL-3 | system=recombinant PRL-3 (Homo sapiens) | key= NC(=O)[C@@H]1CCCN1C(=O)[C@H](Cc1cnc[nH]1)NC(=O)[C@@H]1CCC(=O)N1
106%

// lookup % Phosphatase Activity (compared to DMSO) PRL-3 | system=recombinant PRL-3 (Homo sapiens) | key= CN1C(=O)CCS(=O)(=O)C1c1ccc(Cl)cc1 (centres unmarked)
91%

// lookup % Phosphatase Activity (compared to DMSO) PRL-3 | system=recombinant PRL-3 (Homo sapiens) | key= Cl.O=S(=O)(c1cccc2cnccc12)N1CCCNCC1 [Fasudil (HA-1077) HCl]
82%

* * *

# Study Target: recombinant PRL-2 (Homo sapiens, UniProt Q12974)
# Construct: 6xHis (N, cleaved yes); made in house; host or cells: E. coli One Shot BL21 Star
# Sequence (Q12974 whole entry): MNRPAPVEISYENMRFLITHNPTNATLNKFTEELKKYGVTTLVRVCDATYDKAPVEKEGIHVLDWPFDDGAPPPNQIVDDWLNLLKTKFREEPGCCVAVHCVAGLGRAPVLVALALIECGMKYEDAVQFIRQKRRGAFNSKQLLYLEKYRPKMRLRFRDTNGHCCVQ
# Experiment: In vitro phosphatase assay (DiFMUP hydrolysis), PRL-2;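 also: PRL-2 activity read as DiFMUP hydrolysis after 20 min at room temperature with drug, enzyme first pre-reduced at 4 °C for 20 min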
# Format: biochemical
# Test Settings: FDA-approved drug screen; compared to DMSO
Where a name gives a salt, the structure may show the parent alone.
Assay Endpoint: % Phosphatase Activity (compared to DMSO) PRL-2 (%)
# output: bare number, implied unit %

Solved cases below.
[
  {
    "Compound": "CCCCc1nc2cc(/C=C/C(=O)NO)ccc2n1CCN(CC)CC [Pracinostat (SB939)]",
    "Study Target": "recombinant PRL-2 (Homo sapiens, UniProt Q12974)",
    "Reported": 87
  },
  {
    "Compound": "Cc1ccc2c(Cl)cc(Cl)c(O)c2n1",
    "Study Target": "recombinant PRL-2 (Homo sapiens, UniProt Q12974)",
    "Reported": 102
  },
  {
    "Compound": "CNS(=O)(=O)CCc1ccc2[nH]cc(C3CCN(C)CC3)c2c1",
    "Study Target": "recombinant PRL-2 (Homo sapiens, UniProt Q12974)",
    "Reported": 86
  },
  {
    "Compound": "Cn1cnc2c(F)c(Nc3ccc(Br)cc3Cl)c(C(=O)NOCCO)cc21",
    "Study Target": "recombinant PRL-2 (Homo sapiens, UniProt Q12974)",
    "Reported": 93
  },
  {
    "Compound": "COc1cc2nc(N3CCN(C(=O)c4ccco4)CC3)nc(N)c2cc1OC [Prazosin HCl]",
    "Study Target": "recombinant PRL-2 (Homo sapiens, UniProt Q12974)",
    "Reported": 435
  }
]

What value of % Phosphatase Activity (compared to DMSO) PRL-2 has been recorded for this entry: O=C1C(CC[S+]([O-])c2ccccc2)C(=O)N(c2ccccc2)N1c1ccccc1 (racemic) [(+/-)-Sulfinpyrazone]
95

What value of % Phosphatase Activity (compared to DMSO) PRL-2 has been recorded for this entry: CC1(C)[C@@H](OC(=O)CCC(=O)O)CC[C@]2(C)[C@H]3C(=O)C=C4[C@@H]5C[C@@](C)(C(=O)O)CC[C@]5(C)CC[C@@]4(C)[C@]3(C)CC[C@@H]12 [Carbenoxolone Sodium]
73

What value of % Phosphatase Activity (compared to DMSO) PRL-2 has been recorded for this entry: OCc1ccccc1
91

What value of % Phosphatase Activity (compared to DMSO) PRL-2 has been recorded for this entry: Cc1nc(NC(=O)N2CCC[C@H]2C(N)=O)sc1-c1ccnc(C(C)(C)C(F)(F)F)c1
96

Entry source: paper PMC8119466
